Reference for the values: paper PMC6858373

Biological target: FGF14:Nav1.6 C-tail complex (Homo sapiens, UniProt Q92915+Q9UQD0)
Construct: polymerase chain reaction (PCR) amplification of the FGF14 open reading frame (nt 1–855); C-terminal fragment of Nav1.6 (amino acids 1763–1976) fused with CD4ΔC-tail (amino acids 1–395); expressed in transfected cells
Sequence (Q92915 1-252 isoform Q92915-2): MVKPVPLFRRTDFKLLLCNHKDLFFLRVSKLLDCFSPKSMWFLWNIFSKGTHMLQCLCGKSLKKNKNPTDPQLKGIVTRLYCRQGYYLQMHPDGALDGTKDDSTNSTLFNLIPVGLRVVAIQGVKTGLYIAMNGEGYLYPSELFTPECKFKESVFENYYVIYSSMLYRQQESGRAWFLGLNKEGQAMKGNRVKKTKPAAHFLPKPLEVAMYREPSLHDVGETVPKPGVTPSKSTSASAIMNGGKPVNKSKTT
Sequence (Q9UQD0 1763-1976 limits assumed): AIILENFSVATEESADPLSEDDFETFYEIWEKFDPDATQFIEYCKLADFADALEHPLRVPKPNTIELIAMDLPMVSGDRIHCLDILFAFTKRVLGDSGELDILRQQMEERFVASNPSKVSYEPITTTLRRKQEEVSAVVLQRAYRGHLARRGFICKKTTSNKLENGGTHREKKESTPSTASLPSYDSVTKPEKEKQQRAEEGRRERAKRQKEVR
Test: Split-luciferase complementation assay (LCA) in Clone V double stable HEK293 cells
Type: cell-based
Conditions: CC_NCI screening, biological replicate Set 2; normalized to on-plate 0.3% DMSO controls
Result type: Split Luciferase Assay Z-score Set 2

INSERT INTO measurements (compound, result_type, measured_result) VALUES
  ('COc1cc(N2CCC(N3CCN(C)CC3)CC2)ccc1Nc1ncc(Cl)c(Nc2ccccc2S(=O)(=O)C(C)C)n1 [NVP TAE684]', 'Split Luciferase Assay Z-score Set 2', -7.71),
  ('CS(=O)(=O)OCCCCOS(C)(=O)=O [Busulfan]', 'Split Luciferase Assay Z-score Set 2', 1.01),
  ('Cc1[nH]c2ccccc2c1CCNCc1ccc(/C=C/C(=O)NO)cc1 [LBH-589]', 'Split Luciferase Assay Z-score Set 2', -0.18),
  ('Cc1nc2c(O)cccc2c(=O)[nH]1 [NU 1025]', 'Split Luciferase Assay Z-score Set 2', -4.33),
  ('NC(=O)NO [Hydroxyurea]', 'Split Luciferase Assay Z-score Set 2', 1.01);

---

// Split Luciferase Assay Z-score Set 1 lookup, one value per entry
Biological target: FGF14:Nav1.6 C-tail complex (Homo sapiens, UniProt Q92915+Q9UQD0)
Construct: polymerase chain reaction (PCR) amplification of the FGF14 open reading frame (nt 1–855); C-terminal fragment of Nav1.6 (amino acids 1763–1976) fused with CD4ΔC-tail (amino acids 1–395); expressed in transfected cells
Experiment: Split-luciferase complementation assay (LCA) in Clone V double stable HEK293 cells
Format: cell-based
Conditions: CC_NCI screening, biological replicate Set 1; normalized to on-plate 0.3% DMSO controls
Result type: Split Luciferase Assay Z-score Set 1

INSERT INTO results (compound, result_type, measured_result) VALUES
  ('CCCCC(=O)OCC(=O)[C@]1(O)Cc2c(O)c3c(c(O)c2[C@@H](O[C@H]2C[C@H](NC(=O)C(F)(F)F)[C@H](O)[C@H](C)O2)C1)C(=O)c1c(OC)cccc1C3=O', 'Split Luciferase Assay Z-score Set 1', 2.84),
  ('CC(C)Cn1cnc2c(N)nc3ccccc3c21', 'Split Luciferase Assay Z-score Set 1', 1.35),
  ('COc1ccc(OC)c2c(=S)c3ccccc3[nH]c12', 'Split Luciferase Assay Z-score Set 1', -1.20),
  ('NC(=O)c1ncn([C@@H]2O[C@H](CO)[C@@H](O)[C@H]2O)c1N', 'Split Luciferase Assay Z-score Set 1', 0.03),
  ('O=c1[nH]cc(F)c(=O)[nH]1', 'Split Luciferase Assay Z-score Set 1', 0.64),
  ('CC(=O)O[C@]1(C(C)=O)CC[C@H]2[C@@H]3C=C(C)C4=CC(=O)CC[C@]4(C)[C@H]3CC[C@@]21C [Megestrol acetate]', 'Split Luciferase Assay Z-score Set 1', 4.24),
  ('C[C@@H](CN1CC(=O)NC(=O)C1)N1CC(=O)NC(=O)C1', 'Split Luciferase Assay Z-score Set 1', 1.26),
  ('COc1cc([C@@H]2c3cc4c(cc3[C@@H](O[C@@H]3O[C@@H]5CO[C@@H](c6cccs6)O[C@H]5[C@H](O)[C@H]3O)[C@H]3COC(=O)[C@H]23)OCO4)cc(OC)c1O [Teniposide]', 'Split Luciferase Assay Z-score Set 1', 1.61),
  ('COc1cc(N2CCC(N3CCN(C)CC3)CC2)ccc1Nc1ncc(Cl)c(Nc2ccccc2S(=O)(=O)C(C)C)n1', 'Split Luciferase Assay Z-score Set 1', -7.35);
